Tested on: LU6800B organoid (Lung)
Assay: PDXO viability assay (Cell Titre Glo)
Type: cell-based
Settings: 120 h, 5 days of treatment
Method: In cancer research, natural cell characteristics and architectures can often be more closely mimicked by 3D cell models than monolayer cultures. […] In each case, viability of the culture was assessed after treatment with compound of structural formula I. Viability Assay in Patient-Derived Xenograft Organoid Cell Lines (PDXO). […] Viability assay was performed in 10 PDXO models, and the IC50 values were assessed after 5 days of treatment with compound of structural formula I using Cell Titre Glo.
testReadout: pIC50
Numbers only, as −log10 of the molar value.

What value of measured pIC50 is listed for COc1cc(N2CCN(C)CC2)c(Cl)cc1Nc1ncc(Cl)c(Nc2cccnc2N2CCCC2=O)n1 ? 6.40

Values compiled from patent US20240091226A1.
